All figures here come from PubChem BioAssay (NCI).

Reported growth is given for each of the following molecules.
# System: OVCAR-3 ovarian
# measurementProtocol: NCI-60 one-dose screen, 48 h (100 = growth as untreated, 0 = no growth, -100 = all killed)
# conditionSet: 10 µM unless noted
This is part of a sample that, as a whole, favours compounds with a hit. Of some 83,000 tested, about 20% had one in any assay. The source made the active and inactive calls. How the source made its calls: active means growth percent below 10; inactive means the rest.
endpointName: growth

{"compoundStructure": "O=C1CCCCN1c1ccc(C2=NCCCN2)cc1", "dataValue": "83.9% (inactive)"}
{"compoundStructure": "COc1cc(/C=C/C(=O)N2CCN(C(=O)c3cc(OC)c(OC)c(OC)c3)CC2)ccc1OCCCOc1cc2c(cc1OC)C(=O)N1CCC[C@H]1C=N2", "dataValue": "-11.9% (active)"}
{"compoundStructure": "COc1cc([C@@H](CCO)C[C@H](C)c2ccc3ccccc3c2)cc(OC)c1OC", "dataValue": "8.71% (active)"}
{"compoundStructure": "COC(=O)c1c2c(c(C)[n+]([O-])c1C)C(=O)C(NCc1ccccc1)=CC2=O", "dataValue": "0.759% (active)"}
{"compoundStructure": "O=C(NNc1nc2cc(F)ccc2n2c(CN3CCOCC3)ccc12)c1ccccc1", "dataValue": "-8.34% (active)"}
{"compoundStructure": "COCCn1cc(-c2nc(-c3cn(CCOC)c4ncccc34)cs2)c2cc(F)ccc21", "dataValue": "17.6% (inactive)"}
{"compoundStructure": "O=C(Cn1nc(-c2cccc3ccccc23)ccc1=O)NCc1cccc(Cl)c1", "dataValue": "38.6% [50 µM] (inactive)"}
{"compoundStructure": "O=C(OCc1ccc2c(Cl)cc(Cl)c(O)c2n1)N1CCN(C(=O)c2cc3ccccc3[nH]2)CC1", "dataValue": "30.6% (inactive)"}

====

# Tested on: T-47D breast
# measurementProtocol: NCI-60 one-dose screen, 48 h (100 = growth as untreated, 0 = no growth, -100 = all killed)
# conditionSet: 10 µM unless noted
The panel holds about 83,000 compounds, 20% with a hit somewhere; the sample as a whole holds those more often.
Reported growth is given for each of the following compounds.
endpointName: growth (%)

{"compound": "S=c1ccnc[nH]1", "unitsLabel": "%", "dataValue": 125}
{"compound": "COC(=O)c1c2c(c[n+]([O-])c1C)C(=O)C=C(NCc1ccccc1)C2=O", "unitsLabel": "%", "dataValue": -47.7}
{"compound": "COC12C=C/C(=C(/C(=O)OCc3csc(SC)n3)C(=O)CCCCCCCCC3(OC)C=C/C(=C(/C(=O)OCc4cnc(SC)s4)C(=O)CCCCCCCC1)O3)O2 (stereo not drawn)", "unitsLabel": "%", "dataValue": 41.9}

====

# Test system: NCI/ADR-RES ovarian
# measurementProtocol: NCI-60 one-dose screen, 48 h (100 = growth as untreated, 0 = no growth, -100 = all killed)
# conditionSet: 10 µM unless noted
Compounds without any hit were thinned out: in the full panel of roughly 83,000, 20% have a hit.
In plain terms, low growth, meaning strictly below 80%, gives Y, and everything else gives N.

{"compound": "CCOC(=O)c1c(NC(=O)c2ccccc2)sc2c3c(ccc12)OCN(C)C3", "className": "Y"}
{"compound": "CN1CC(c2ccc(Br)cc2)C(C(=O)c2ccc(Br)cc2)C12C(=O)Nc1ccccc12 (configuration not stated)", "className": "Y"}
{"compound": "Cc1ccc(C(=O)c2ccc(CC(=O)N/N=C/c3cccc(O)c3O)n2C)cc1", "className": "Y"}
{"compound": "COc1ccc(/C=C2\\CN(C(=O)C(Cl)Cl)C/C(=C\\c3ccc(OC)c(OC)c3)C2=O)cc1OC", "className": "Y"}
{"compound": "O=C(C[C@]1(O)C(=O)Nc2ccc(Br)cc21)c1ccco1", "className": "N"}
{"compound": "C=CCn1cc(-c2nc3ccccc3s2)c2cc(-c3ccc4c5c(cccc35)C(=O)N(CCO)C4=O)ccc21", "className": "N"}
{"compound": "CC/C(=C(/c1ccc(O)cc1)c1ccc(OCCN2CCCCC2)cc1)c1ccc(OC)cc1", "className": "Y"}
{"compound": "CCC(C)(C)c1ccc(Nc2ccc(Nc3ccc(C(C)(C)CC)cc3)cc2)cc1", "className": "N"}
{"compound": "CCOC(=O)c1cn2ncnc(Oc3ccc(NC(=O)NC4CC4)c(Cl)c3)c2c1C", "className": "N"}
{"compound": "O=C(CN1C(=O)S/C(=C\\C(Cl)=C\\c2ccccc2)C1=O)NC1CCS(=O)(=O)C1 (configuration not stated)", "className": "N"}
{"compound": "NC(=O)c1ccccc1OCC(=O)Nc1ccc(Cl)c(Cl)c1", "className": "N"}
{"compound": "CN(C)CCCn1c2c(c3cnccc3c1=O)C(=O)c1ccccc1-2", "className": "Y"}

====

# Tested on: HOP-62 NSCLC
# measurementProtocol: NCI-60 one-dose screen, 48 h (100 = growth as untreated, 0 = no growth, -100 = all killed)
# conditionSet: 10 µM unless noted
This is part of a sample that, as a whole, favours compounds with a hit. Of some 83,000 tested, about 20% had one in any assay.
endpointName: growth (%)

{"molecule": "NCCCNc1nc2ccccc2c2c(=O)c3cc(Cl)ccc3sc12", "system": "HOP-62 NSCLC", "endpointName": "growth", "dataValue": -82.9}
{"molecule": "CC[C@@H](C(=O)[C@@H](C)[C@@H](O)[C@H](C)[C@@H]1O[C@@H]([C@@H](CC)C(=O)ONC(=O)c2ccccc2O)CC[C@@H]1C)C1O[C@]2(C=CC(=O)[C@]3(CC[C@@](C)([C@H]4CC[C@](O)(CC)[C@H](C)O4)O3)O2)[C@H](C)C[C@@H]1C (stereo partly drawn)", "system": "HOP-62 NSCLC", "endpointName": "growth", "dataValue": 58.3}
{"molecule": "COc1ccc(-c2cn(Cc3cc4ccccc4s3)nn2)cc1OCCN1CCCCC1", "system": "HOP-62 NSCLC", "endpointName": "growth", "dataValue": 84}

====

# System: CCRF-CEM leukemia
# measurementProtocol: NCI-60 one-dose screen, 48 h (100 = growth as untreated, 0 = no growth, -100 = all killed)
# conditionSet: 10 µM unless noted
About 83,000 compounds went through this panel and 20% of them were active in at least one assay; those are over-represented in the sample as a whole.
Decide using growth: a value greater than or equal to 10% is T, a smaller one is F.

{"compound": "C#Cc1cccc(Nc2ncnc3cc(NC(=O)CCl)ccc23)c1", "className": "F"}
{"compound": "O=C(Nc1cc(Cl)cc(Cl)c1)Oc1c(Cl)c(Cl)c(Cl)c(Cl)c1Cl", "className": "T"}
{"compound": "CNCCCNc1nc2ccccc2c2c(=O)c3cc(Cl)ccc3sc12", "className": "T"}
{"compound": "CN(C)CCn1c(=O)c2ccccc2n2nc3ccccc3c12", "className": "T"}
{"compound": "COc1cc(-c2cc(-c3ccc(Nc4nc(Nc5ccc(Cl)cc5)nc(Nc5ccc(Cl)cc5)n4)cc3)no2)cc(OC)c1OC", "className": "F"}
{"compound": "CCCC(O)Cn1ncc(C(=O)OCC)c1NC(=O)NCc1cccc(C(F)(F)F)c1 (centres undefined)", "className": "F"}
{"compound": "Cc1cc(=O)n(C(=S)Nc2ccc(Cl)cc2)c2cc(O)ccc12", "className": "T"}
{"compound": "NS(=O)(=O)c1ccc(C(=O)N=Nc2c(O)[nH]c3ccc(Cl)cc23)cc1", "className": "T"}
{"compound": "COc1ccc(OC)c(Nc2nnc(-c3cc(OC)c(OC)c(OC)c3)o2)c1", "className": "T"}
{"compound": "Clc1ccc(Nc2ncc(Cc3cccc(Cl)c3Cl)s2)cc1", "className": "T"}
{"compound": "Cn1cc(-c2nc3c(F)cc4[nH]ncc4c3c3c2CCCC3)c(C(F)(F)F)n1", "className": "F"}
{"compound": "O=c1c2ccccc2n(C[C@H]2CO2)c2ccccc12", "className": "F"}
{"compound": "Cn1c2ccccc2c2c3c(c4c5cc(Br)ccc5n(C)c4c21)C(=O)N(O)C3=O", "className": "F"}
{"compound": "N#C/C(=C\\c1ccc(-c2cccc(Cl)c2)o1)C(=O)Nc1ncc(Cc2ccc(Cl)cc2)s1", "className": "T"}
{"compound": "Cc1cccc(NC(=O)N/C(N)=N/c2nc3ccccc3s2)c1", "className": "T"}
{"compound": "Oc1nc(NCc2ccccc2)sc1/C=C1\\C=Nc2ncccc21", "className": "T"}
{"compound": "CCOC(=O)C#Cc1c(C(=O)OCC)nnn1[C@@H]1O[C@H](COC)[C@@H](OC)[C@H]1OC", "className": "T"}
{"compound": "CCOC(=O)C/C(=N\\Nc1cc(=O)[nH]c2ccc(OC)cc12)C(=O)OCC", "className": "F"}
{"compound": "C=CCN=c1sc(-c2ccc3ccccc3c2)cn1NC(=O)c1cc2ccc1CCc1ccc(cc1)CC2", "className": "T"}
{"compound": "O=C1CCCCN1c1ccc(C2=NCCCN2)cc1", "className": "T"}
{"compound": "COC(=O)Cn1c2c(c3c(OC)cccc31)C(=O)c1ccccc1-2", "className": "T"}
{"compound": "CCCc1cc(=O)oc2c(C(=O)CC(C)C)c(O)c(CC=C(C)C)c(O)c12", "className": "T"}
{"compound": "COC1C(O)CC(OC2CC(OC3CC(O[C@@H]4C(=O)c5c(cc6cc(OC7CC(OC8CC(O)C(O)C(C)O8)C(O)C(C)O7)c(C)c(O)c6c5O)CC4[C@H](OC)[C@@H](O)C(C)=O)OC(C)C3O)OC(C)C2O)OC1C (some centres undefined)", "className": "T"}
{"compound": "c1cc(OCCN2CCCCCC2)ccc1CNc1ccc2nc(CCC3CCCCC3)[nH]c2c1", "className": "T"}
